Assay: physchem
Settings: octanol/buffer
Respond with satisfied for logP values of 5 and above, not satisfied for values below.

Input line: Decide: logP of CC(=O)NCc1ccc(Cl)c(CN(C(=O)[C@H]2CNCC(=O)N2c2ccc(COC(=O)c3ccccc3)cc2)C2CC2)c1 >= 5?
Output line: not satisfied

Input line: Decide: logP of COCCCc1cc(CN(C(=O)[C@H]2CNCC(=O)N2c2ccc(OCCOc3c(Cl)cc(C)cc3Cl)nc2)C2CC2)c(Cl)c[n+]1[O-] >= 5?
Output line: not satisfied

Input line: Decide: logP of COc1ccccc1COCCCOc1ncc(N2C(=O)CNC[C@@H]2C(=O)N(Cc2cc(CCNC(C)=O)ccc2Cl)C2CC2)cn1 >= 5?
Output line: not satisfied

Input line: Decide: logP of Cc1ccc(F)cc1Oc1c(C(=O)N2CCNCC2)c2ccc(O)cc2n1-c1ccc(F)cc1 >= 5?
Output line: satisfied

Input line: Decide: logP of CN(CCCc1ccccc1)C(=O)[C@H]1CNCC(=O)N1c1ccc(CCCOc2cccc(Cl)c2)cc1 >= 5?
Output line: satisfied

Input line: Decide: logP of CNC(=O)OCc1ccc(Cl)c(CN(C(=O)[C@H]2CNCC(=O)N2c2ccc(CCCOc3c(F)ccc(F)c3F)cc2)C2CC2)c1 >= 5?
Output line: satisfied

Input line: Decide: logP of COCCCc1cc(CN(C(=O)[C@H]2CNCC(=O)N2c2ccc(OCCOc3c(Cl)cc(C)cc3Cl)nc2)C2CC2)c(Cl)cn1 >= 5?
Output line: not satisfied

Input line: Decide: logP of COCCCc1ccc(Cl)c(CN(C(=O)[C@H]2CNCC(=O)N2c2ccc(OCCCOCc3ccccc3)cc2)C2CC2)c1 >= 5?
Output line: satisfied

Input line: Decide: logP of Cc1cc(Cl)c(OCCOc2ccc(N3C(=O)CNC[C@@H]3C(=O)N(C)CCc3ccccc3)cc2)c(Cl)c1 >= 5?
Output line: not satisfied

Input line: Decide: logP of Cc1cccc(CN(C(=O)[C@H]2CNCC(=O)N2c2ccc(CCCOc3cccc(Cl)c3)cc2)C2CC2)c1C >= 5?
Output line: satisfied

Input line: Decide: logP of COc1ccccc1COCCCOc1ccc(N2C(=O)CNC[C@@H]2C(=O)N(Cc2cc(CNC(=O)CC(F)(F)F)ccc2Cl)C2CC2)cc1 >= 5?
Output line: satisfied

Input line: Decide: logP of CNC(=O)CCc1ccc(Cl)c(CN(C(=O)[C@H]2CNCC(=O)N2c2ccc(OCCCOCc3ccccc3OC)cc2)C2CC2)c1 >= 5?
Output line: not satisfied

Input line: Decide: logP of CNC(=O)OCCc1ccc(Cl)c(CN(C(=O)[C@H]2CNCC(=O)N2c2ccc(OCCOc3c(Cl)cc(C)cc3Cl)cc2)C2CC2)c1 >= 5?
Output line: satisfied

Input line: Decide: logP of O=C([C@H]1CNCC(=O)N1c1ccc(CCCOc2cccc(Cl)c2)cc1)N(Cc1cc(CNC2CC2)ccc1Cl)C1CC1 >= 5?
Output line: satisfied

Input line: Decide: logP of CCC(=O)NCc1ccc(Cl)c(CN(C(=O)[C@H]2CNCC(=O)N2c2ccc(OCCOc3c(Cl)cc(C)cc3Cl)cc2)C2CC2)c1 >= 5?
Output line: satisfied

Input line: Decide: logP of Cc1cc(Cl)c(OCCOc2ccc(N3C(=O)CNC[C@@H]3C(=O)N(Cc3ccccc3Cl)C3CC3)cc2)c(Cl)c1 >= 5?
Output line: satisfied

Input line: Decide: logP of Cc1cc(Cl)c(OCCOc2ccc(N3C(=O)CNC[C@@H]3C(=O)N(Cc3cc(CNC(=O)CC(F)(F)F)ccc3Cl)C3CC3)cc2)c(Cl)c1 >= 5?
Output line: satisfied

Input line: Decide: logP of Cc1cc(Cl)c(OCCOc2ccc(N3C(=O)CNC[C@@H]3C(=O)NCc3ccccc3Cl)cn2)c(Cl)c1 >= 5?
Output line: not satisfied

Input line: Decide: logP of COCCCc1cc(CN(C(=O)[C@H]2CNCC(=O)N2c2ccc(CCCOc3cccc(Cl)c3)cc2)C2CC2)c(Cl)cn1 >= 5?
Output line: satisfied

Input line: Decide: logP of COCCc1ccc(Cl)c(CN(C(=O)[C@H]2CNCC(=O)N2c2ccc(CCCOc3cccc(Cl)c3)cc2)C2CC2)c1 >= 5?
Output line: satisfied

Input line: Decide: logP of COc1ccccc1COCCCOc1ncc(N2C(=O)CNC[C@@H]2C(=O)N(Cc2cc(CCNCC(F)F)ccc2Cl)C2CC2)cn1 >= 5?
Output line: not satisfied

Input line: Decide: logP of CNC(=O)CCc1ccc(Cl)c(CN(C(=O)[C@H]2CNCC(=O)N2c2ccc(COC(=O)c3ccccc3)cc2)C2CC2)c1 >= 5?
Output line: not satisfied

Input line: Decide: logP of COC(=O)NCc1ccc(Cl)c(CN(C(=O)[C@H]2CNCC(=O)N2c2ccc(CCCOc3cccc(Cl)c3)cc2)C2CC2)c1 >= 5?
Output line: satisfied

Input line: Decide: logP of COc1cccc(CN(C(=O)[C@H]2CNCC(=O)N2c2ccc(OCCCOCc3ccccc3)cc2)C2CC2)c1C >= 5?
Output line: not satisfied

Input line: Decide: logP of CN(CCc1ccccc1)C(=O)[C@H]1CNCC(=O)N1c1ccc(CCCOc2cccc(Cl)c2)cc1 >= 5?
Output line: not satisfied

Input line: Decide: logP of COC(=O)NCCc1ccc(Cl)c(CN(C(=O)[C@H]2CNCC(=O)N2c2ccc(CCCOc3c(F)ccc(F)c3F)cc2)C2CC2)c1 >= 5?
Output line: satisfied

Input line: Decide: logP of CCNCc1ccc(Cl)c(CN(C(=O)[C@H]2CNCC(=O)N2c2ccc(OCCOc3c(Cl)cc(C)cc3Cl)nc2)C2CC2)c1 >= 5?
Output line: satisfied

Input line: Decide: logP of CN(CCc1ccccc1)C(=O)[C@H]1CNCC(=O)N1c1ccc(COC(=O)c2ccccc2)cc1 >= 5?
Output line: not satisfied
